- Assayed system: human TAS1R2-R838K/TAS1R3-WT (Homo sapiens, UniProt Q7RTX0+Q8TE23, R838K)
- Construct: expressed in transfected cells; host or cells: HEK293T-Gα16gust44
- Assay remarks: Calcium mobilisation assay, TAS1R2 variant R838K with TAS1R3-WT
- Format: cell-based
Parameter: R1 = Variant EC50/WT EC50

COc1ccc(CCC(=O)c2c(O)cc(O[C@@H]3O[C@H](CO)[C@@H](O)[C@H](O)[C@H]3O[C@@H]3O[C@@H](C)[C@H](O)[C@@H](O)[C@H]3O)cc2O)cc1O [NHDC, neohesperidin dihydrochalcone]	1.0
CC1=CC(=O)NS(=O)(=O)O1	0.7
OC[C@H]1O[C@H](O[C@]2(CCl)O[C@H](CCl)[C@@H](O)[C@@H]2O)[C@H](O)[C@@H](O)[C@H]1Cl	0.9

----------
- Assayed system: human TAS1R2-I234V/TAS1R3-WT (Homo sapiens, UniProt Q7RTX0+Q8TE23, I234V)
- Construct: expressed in transfected cells; host or cells: HEK293T-Gα16gust44
- Sequence (Q8TE23 20-839 I234V): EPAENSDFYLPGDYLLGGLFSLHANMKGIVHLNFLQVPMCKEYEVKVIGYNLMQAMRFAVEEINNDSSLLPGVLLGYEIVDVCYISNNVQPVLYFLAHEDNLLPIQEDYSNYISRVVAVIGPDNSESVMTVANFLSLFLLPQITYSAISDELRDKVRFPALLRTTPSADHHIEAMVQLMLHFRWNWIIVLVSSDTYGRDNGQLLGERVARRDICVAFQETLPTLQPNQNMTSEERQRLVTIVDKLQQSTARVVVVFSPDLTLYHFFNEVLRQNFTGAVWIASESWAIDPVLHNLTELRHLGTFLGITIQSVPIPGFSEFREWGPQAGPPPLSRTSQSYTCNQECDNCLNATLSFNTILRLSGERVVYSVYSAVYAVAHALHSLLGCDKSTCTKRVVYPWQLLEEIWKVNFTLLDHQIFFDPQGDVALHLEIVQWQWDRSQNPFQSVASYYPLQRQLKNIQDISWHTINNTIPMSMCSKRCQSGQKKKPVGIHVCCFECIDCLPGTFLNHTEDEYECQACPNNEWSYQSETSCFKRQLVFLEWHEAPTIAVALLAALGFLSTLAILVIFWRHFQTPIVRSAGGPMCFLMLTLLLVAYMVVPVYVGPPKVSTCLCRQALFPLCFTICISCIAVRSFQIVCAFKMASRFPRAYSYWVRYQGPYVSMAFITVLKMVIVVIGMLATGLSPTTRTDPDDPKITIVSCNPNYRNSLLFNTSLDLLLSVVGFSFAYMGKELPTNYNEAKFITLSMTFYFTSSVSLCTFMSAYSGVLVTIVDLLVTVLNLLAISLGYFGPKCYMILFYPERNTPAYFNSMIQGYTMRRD
- Sequence (Q7RTX0 21-852): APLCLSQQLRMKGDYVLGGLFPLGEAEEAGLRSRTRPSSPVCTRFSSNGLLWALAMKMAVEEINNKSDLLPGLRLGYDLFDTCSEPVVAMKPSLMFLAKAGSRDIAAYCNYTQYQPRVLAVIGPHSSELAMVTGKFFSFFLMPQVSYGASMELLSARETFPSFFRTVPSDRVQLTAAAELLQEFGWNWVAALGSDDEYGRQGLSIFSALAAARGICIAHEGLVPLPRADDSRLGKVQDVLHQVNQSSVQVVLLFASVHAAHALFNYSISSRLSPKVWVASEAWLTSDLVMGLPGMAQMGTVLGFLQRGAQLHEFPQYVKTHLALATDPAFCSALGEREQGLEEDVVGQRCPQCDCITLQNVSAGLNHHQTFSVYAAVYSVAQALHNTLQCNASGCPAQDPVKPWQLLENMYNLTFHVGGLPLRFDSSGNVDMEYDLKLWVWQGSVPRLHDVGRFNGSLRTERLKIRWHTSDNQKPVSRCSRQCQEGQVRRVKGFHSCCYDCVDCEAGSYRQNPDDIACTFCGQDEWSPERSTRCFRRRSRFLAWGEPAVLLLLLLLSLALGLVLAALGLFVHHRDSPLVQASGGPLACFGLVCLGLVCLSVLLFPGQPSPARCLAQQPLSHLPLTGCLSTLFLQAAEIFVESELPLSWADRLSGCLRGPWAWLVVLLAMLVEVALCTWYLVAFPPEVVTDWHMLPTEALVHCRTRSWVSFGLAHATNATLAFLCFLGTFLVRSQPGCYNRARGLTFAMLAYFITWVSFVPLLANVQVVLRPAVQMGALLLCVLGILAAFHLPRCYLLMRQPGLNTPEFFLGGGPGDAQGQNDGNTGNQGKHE
- Assay remarks: Calcium mobilisation assay, TAS1R2 variant I234V with TAS1R3-WT
- Assay type: cell-based
- Experimental conditions: maximal signal amplitude
Parameter: Max ΔF/F0

Study these solved cases before continuing.
COC(=O)[C@H](Cc1ccccc1)NC(=O)[C@H](CC(=O)O)NCCC(C)(C)C [Neotame]	0.66
OC[C@H]1O[C@H](O[C@]2(CCl)O[C@H](CCl)[C@@H](O)[C@@H]2O)[C@H](O)[C@@H](O)[C@H]1Cl [Sucralose]	0.75
C[C@H](CC[C@@H](O[C@@H]1O[C@H](CO[C@@H]2O[C@H](CO)[C@@H](O)[C@H](O)[C@H]2O)[C@@H](O)[C@H](O)[C@H]1O[C@@H]1O[C@H](CO)[C@@H](O)[C@H](O)[C@H]1O)C(C)(C)O)[C@H]1CC[C@@]2(C)[C@@H]3CC=C4[C@@H](CC[C@H](O[C@@H]5O[C@H](CO[C@@H]6O[C@H](CO)[C@@H](O)[C@H](O)[C@H]6O)[C@@H](O)[C@H](O)[C@H]5O)C4(C)C)[C@]3(C)[C@H](O)C[C@]12C [Mogroside V, mogroside V]	1.28

(I) CC1=CC(=O)NS(=O)(=O)O1 [Acesulfame K, acesulfame K]
(II) COc1ccc(CCC(=O)c2c(O)cc(O[C@@H]3O[C@H](CO)[C@@H](O)[C@H](O)[C@H]3O[C@@H]3O[C@@H](C)[C@H](O)[C@@H](O)[C@H]3O)cc2O)cc1O [NHDC, neohesperidin dihydrochalcone]
(III) C=C(C)[C@@H]1CC=C(/C=N/O)CC1 [Perillartine, perillartine]
[Q] Please order the records by their reported Max ΔF/F0, lowest number first. Return the labels ranked in the requested order, please.
[A] I, II, III
